# inhibition listing for each entry below
experiment: inhibitors of the yeast RAM network, pilot screen, dse1pr::URA3 reporter, 5-FOA selection (AID 869);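 also: 0% = DMSO wells with no growth and 100% = 10 µM 1-NA-PP1 with full growth; RAM network block rescues cells from 5-FOA so hits raise OD615 growth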; settings: S. cerevisiae dse1pr::URA3 5-FOA growth, OD615, 2 d; at 10 µM; stronger effect = higher value; strain carries analog-sensitive mutant Cbk1 kinase
Form entry: value (%) — number only.

Data request: Assign inhibition to the following record: Fc1ccc(Br)cc1C1C=C(c2cccnc2)Nc2ncnn21 (stereo unspecified)
Data returned: 3.21

Data request: Return the recorded inhibition value; entry: Cc1oc2cc(O)ccc2c(=O)c1N1C(=O)c2ccccc2C1=O
Data returned: 1.11

Data request: Tell us which inhibition value is on record for O=C1CCCC2=C1C1(O)C(=O)c3ccccc3C1(O)O2 (stereo unspecified)
Data returned: 1.28

Data request: Assign inhibition to the following record: CC12CCC(C(=O)Nc3ccccc3N3CCOCC3)(CC1=O)C2(C)C (stereo unspecified)
Data returned: 0.715

Data request: Provide measured inhibition value, entry: COC(=O)c1ccsc1NC(=O)C1COc2ccccc2O1 (stereo unspecified)
Data returned: 0.425

Data request: Report measured inhibition; entry is O=C(C1CCN(S(=O)(=O)c2cccc3cccnc23)CC1)N1CCCC1
Data returned: 1.52
